Molecular target: UniProt:Q14416
Sequence (Q14416 19-872): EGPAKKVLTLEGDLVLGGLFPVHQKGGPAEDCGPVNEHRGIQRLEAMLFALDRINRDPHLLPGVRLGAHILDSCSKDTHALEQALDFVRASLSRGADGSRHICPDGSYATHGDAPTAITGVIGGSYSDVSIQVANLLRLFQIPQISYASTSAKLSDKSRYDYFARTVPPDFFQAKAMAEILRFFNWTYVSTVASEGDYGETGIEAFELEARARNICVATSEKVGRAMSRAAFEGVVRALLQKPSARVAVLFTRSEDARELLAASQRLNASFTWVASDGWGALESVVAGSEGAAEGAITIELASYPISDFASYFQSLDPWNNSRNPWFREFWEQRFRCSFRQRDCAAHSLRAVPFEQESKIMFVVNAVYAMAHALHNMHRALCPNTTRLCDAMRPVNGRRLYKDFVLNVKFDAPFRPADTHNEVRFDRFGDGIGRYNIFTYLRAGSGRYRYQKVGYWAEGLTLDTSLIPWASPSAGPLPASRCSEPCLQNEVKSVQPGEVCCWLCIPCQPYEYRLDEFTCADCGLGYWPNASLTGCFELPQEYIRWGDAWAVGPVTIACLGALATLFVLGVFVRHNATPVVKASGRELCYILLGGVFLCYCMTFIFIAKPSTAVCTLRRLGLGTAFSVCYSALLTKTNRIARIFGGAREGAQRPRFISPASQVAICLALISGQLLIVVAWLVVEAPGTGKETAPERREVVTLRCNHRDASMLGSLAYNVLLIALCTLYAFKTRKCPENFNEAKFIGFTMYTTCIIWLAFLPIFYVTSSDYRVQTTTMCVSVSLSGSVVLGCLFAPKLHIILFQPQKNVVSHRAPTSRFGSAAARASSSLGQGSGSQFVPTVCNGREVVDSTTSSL
Test: [35S]GTPγS binding assay (Affinity to mGluR2)
Type: biochemical
Details: cell membrane fraction of HEK293 cells stably expressing human mGluR2; glutamic acid 10 μM; inhibition of specific [35S]GTPγS binding
The compounds listed here are annotated with their IC50.
Quantity Measured: IC50 (nM)

Item Smiles: COc1cc(-c2nc(-c3cc(C)nc(C(F)F)c3)c3n2C[C@@H](C)OCC3)ccc1C(F)F
Numeric Readout: 15.1

Item Smiles: Cc1cc(-c2nc(-c3ccc(C(F)(F)F)c(C)c3)n3c2CCO[C@H](CF)C3)cc(C)n1
Numeric Readout: 19.3

Item Smiles: Cc1cc(-c2nc(-c3ccc(C(F)(F)F)c(C)c3)n3c2CCO[C@H](CF)C3)ccn1
Numeric Readout: 19.3

Item Smiles: COc1cc(-c2nc(-c3ccnc(C)c3)c3n2C[C@@H](C)OCC3)ccc1F
Numeric Readout: 51.9

Item Smiles: Cc1cc(-c2nc(-c3ccc(Cl)c(C(F)(F)F)c3)n3c2CCO[C@H](C)C3)ccn1
Numeric Readout: 14.5

Item Smiles: Cc1cc(-c2nc(-c3ccc(F)c(OC(F)(F)F)c3)n3c2CCO[C@H](C)C3)cc(C)n1
Numeric Readout: 12.7

Item Smiles: Cc1cc(-c2nc(-c3ccc(OC4CC4)c(C)c3)n3c2CCO[C@H](C)C3)cc(CF)n1
Numeric Readout: 4.7

Item Smiles: Cc1cc(-c2nc(-c3ccc(OC(F)(F)F)c(C#N)c3)n3c2CCO[C@H](CF)C3)cc(C)n1
Numeric Readout: 3.7

The values you see were collected from patent US9458176B2.
